Assay Notes: chemical genetic growth profiling, strain panel (AID 1159580);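 note: tested at 20 µM; growth read once vehicle control cultures reached saturation at 30 °C; 1 = growth at the plate median or of vehicle wells; lower values mean less growth of the strain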
Condition: S. cerevisiae deletion strains, growth OD, locus YCL011C, strain gbp2
Among all 5,500 compounds or so, about 2,000 (36%) were called active. About 18% were inconclusive and are not listed. Cut-off read from the data, not from the text of the source: active = normalized growth mostly below about 0.91 (no sharp cut-off); inconclusive = no clear call, values can overlap the other calls; inactive = mostly above about 0.92. The list shows a part of the results.
Can you answer with just one of these options? t (active), f (inactive)

Exercise: # lookup: test call for `CN[C@@H]1[C@@H](O[C@H]2O[C@H](CO)[C@@H](N)[C@H](O)[C@H]2O)O[C@H]2C[C@@H](N)[C@H](O[C@H]3[C@H](O)[C@@H](O)[C@H](N)C[C@@H]3N)O[C@@H]2[C@@H]1O`
Solution: f

Continuing:
Exercise: # lookup: test call for `CCOc1ccc(C(=O)c2cc(O)c(OC)c(OC)c2O)cc1`
Solution: f

Exercise: # lookup: test call for `CCOc1ccc(NC(C)=O)cc1`
Solution: f

Exercise: # lookup: test call for `c1ccc2c(Cc3c[nH]c4ccccc34)c[nH]c2c1`
Solution: t

Exercise: # lookup: test call for CC(=O)OCC1=C(C(=O)O)N2C(=O)[C@@H](NC(=O)CCCC(N)C(=O)O)C2SC1 (some centres not stated)
Solution: f

----------
# maps each entry to its normalized growth
Assay Notes: chemical genetic growth profiling, strain panel (AID 1159580);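 note: tested at 20 µM; growth read once vehicle control cultures reached saturation at 30 °C; 1 = growth at the plate median or of vehicle wells; lower values mean less growth of the strain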
Condition: S. cerevisiae deletion strains, growth OD, locus YEL037C, strain rad23, active compounds read low
In all, about 5,500 compounds went through this assay and about 2,000 (36%) were called active. Inconclusive results (about 18%) are left out. The list shows a part of the results. Where a SMILES comes first, the peptide text is derived from it. Bridges are numbered along the chain shown (N, C = ends). Side-chain parts run from the residue outwards. [ ]: non-standard residue; d: D form. The star is where a group is joined. Octanoyl(6-Me) = CCC(C)CCCCC(=O)*; X1 = CCC(C)C(N)C1=NC(C(=O)*)CS1; Orn = NCCC[CH](N)C(=O)O; Dab = NCC[CH](N)C(=O)O
In your answer, state the number alone without any accompanying words.

Exercise: Look up and report measured normalized growth for this entry: CCC(C)CCCCC(=O)NC(CCN)C(=O)NC(C(=O)NC(CCN)C(=O)NC1CCNC(=O)C(C(C)O)NC(=O)C(CCN)NC(=O)C(CCN)NC(=O)C(CC(C)C)NC(=O)C(Cc2ccccc2)NC(=O)C(CCN)NC1=O)C(C)O (stereo not drawn) ({Octanoyl(6-Me)}-[Dab]T[Dab][Dab][Dab]FL[Dab][Dab]T; lactam 4-C; configuration not given here)
Solution: 1

Exercise: Look up and report measured normalized growth for this entry: `NCCc1cc(O)c(O)cc1O`
Solution: 0.964

Exercise: Look up and report measured normalized growth for this entry: CCC(C)C(N)C1=NC(C(=O)NC(CC(C)C)C(=O)NC(CCC(=O)O)C(=O)NC(C(=O)NCCCCC2NC(=O)C(CC(N)=O)NC(=O)C(CC(=O)O)NC(=O)C(Cc3cnc[nH]3)NC(=O)C(Cc3ccccc3)NC(=O)C(C(C)CC)NC(=O)C(CCCN)NC2=O)C(C)CC)CS1 (stereo not drawn) (cyclo(DNK([Ile-Glu-Leu-X1])[Orn]IFH); configuration not given here)
Solution: 1.01

Exercise: Look up and report measured normalized growth for this entry: CCC1C(=O)OCC1Cc1cncn1C (stereo not drawn)
Solution: 1.01

Exercise: Look up and report measured normalized growth for this entry: O=c1[nH]cnc2c1ncn2C1O[C@H](CO)[C@@H](O)[C@H]1O (stereo partly drawn)
Solution: 0.987

Exercise: Look up and report measured normalized growth for this entry: `CC[C@@H](CO)NC(=O)[C@@H]1C=C2c3cccc4[nH]cc(c34)C[C@H]2N(C)C1`
Solution: 1

Exercise: Look up and report measured normalized growth for this entry: `CC1(C)C=Cc2cc3ccc(=O)oc3cc2O1`
Solution: 0.95

Exercise: Look up and report measured normalized growth for this entry: `CCOC([O-])=Nc1c[n+](N2CCOCC2)no1`
Solution: 0.993

----------
Assay Notes: chemical genetic growth profiling, strain panel (AID 1159580);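 note: tested at 20 µM; growth read once vehicle control cultures reached saturation at 30 °C; 1 = growth at the plate median or of vehicle wells; lower values mean less growth of the strain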
Condition: S. cerevisiae deletion strains, growth OD, locus YHR142W, strain chs7
Out of some 5,500 compounds screened, about 2,000 (36%) were called active. About 18% were inconclusive and are not listed. No stated cut-off is given here; in the data, active means normalized growth mostly below about 0.91 (no sharp cut-off); inconclusive means no clear call, values can overlap the other calls; inactive means mostly above about 0.92. The list shows a part of the results. *1 amine or outer side, *2 acyl side, *3 side chain or, on linkers, in order; H or OH if unused. Where a SMILES comes first, the peptide text is derived from it. Bridges are numbered along the chain shown (N, C = ends). [ ]: non-standard residue; d: D form. The star is where a group is joined. ξ: configuration not given here. ΔAla(E,3-NHCONH2) = NC(=O)N/C=C(/N)C(=O)O; X2 = NC1=NCCC(C(N[*:1])C(=O)[*:2])N1; ξβ3hOrn = NCCCC(N)CC(=O)*; Dap = NC[CH](N)C(=O)O
Can you answer with just one of these options? active, inactive

Some entries whose results are on file:
Exercise: # lookup: test call for CCCCCCCCCCCCCCCCCCOCC(O)CO (centres undefined)
Solution: inactive

Exercise: # lookup: test call for `O=c1oc2c(O)c(O)cc3c(=O)oc4c(O)c(O)cc1c4c23`
Solution: active

Continuing:
Exercise: # lookup: test call for `COc1cc(NS(=O)(=O)c2ccc(N)cc2)ncn1`
Solution: inactive

Exercise: # lookup: test call for `CO[C@@]1(NC(=O)Cc2cccs2)C(=O)N2C(C(=O)O)=C(COC(N)=O)CS[C@@H]21`
Solution: inactive

Exercise: # lookup: test call for `NC(=O)N1c2ccccc2C=Cc2ccccc21`
Solution: inactive

Exercise: # lookup: test call for `CCOc1cccc(C(=O)c2ccc(O)c(O)c2O)c1`
Solution: active

Exercise: # lookup: test call for `CN1CCN(CC(=O)N2c3ccccc3C(=O)Nc3cccnc32)CC1`
Solution: inactive

Exercise: # lookup: test call for NCCCC(N)CC(=O)NCC1NC(=O)C(CO)NC(=O)C(N)CNC(=O)C(C2CCN=C(N)N2)NC(=O)/C(=C\NC(N)=O)NC1=O (stereo not drawn) (H-[Dap]S[Dap](ξβ3hOrn)[ΔAla(E,3-NHCONH2)][X2]; lactam 1-C; configuration not given here)
Solution: inactive

Exercise: # lookup: test call for `CCCc1nc2c(C)cc(-c3nc4ccccc4n3C)cc2n1Cc1ccc(-c2ccccc2C(=O)O)cc1`
Solution: inactive

----------
Assay Notes: chemical genetic growth profiling, strain panel (AID 1159580);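 note: tested at 20 µM; growth read once vehicle control cultures reached saturation at 30 °C; 1 = growth at the plate median or of vehicle wells; lower values mean less growth of the strain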
Condition: S. cerevisiae deletion strains, growth OD, locus YML016C, strain PPZ1
Hit rate of the full screen: of about 5,500 compounds, about 2,000 (36%) were called active. About 18% were inconclusive and are not listed. No stated cut-off is given here; in the data, active means normalized growth mostly below about 0.91 (no sharp cut-off); inconclusive means no clear call, values can overlap the other calls; inactive means mostly above about 0.92. Some of the results follow. Where a SMILES comes first, the peptide text is derived from it. Side-chain parts run from the residue outwards. [ ]: non-standard residue; d: D form. The star is where a group is joined. X1 = CCC(C)C(N)C1=NC(C(=O)*)CS1; Orn = NCCC[CH](N)C(=O)O
Can you answer with just one of these options? active, inactive

Exercise: # lookup: test call for CC(=O)O[C@@H]1CC[C@]2(C)C3CC[C@]4(C)C(=O)CCC4C3CC[C@H]2C1 (stereo partly drawn)
Solution: inactive

Exercise: # lookup: test call for CN1C(=O)CCS(=O)(=O)C1c1ccc(Cl)cc1 (stereo not drawn)
Solution: inactive

Exercise: # lookup: test call for `COc1ccc(C(=O)c2ccccc2)c(O)c1O`
Solution: inactive

Exercise: # lookup: test call for CCC(C)C(N)C1=NC(C(=O)NC(CC(C)C)C(=O)NC(CCC(=O)O)C(=O)NC(C(=O)NCCCCC2NC(=O)C(CC(N)=O)NC(=O)C(CC(=O)O)NC(=O)C(Cc3cnc[nH]3)NC(=O)C(Cc3ccccc3)NC(=O)C(C(C)CC)NC(=O)C(CCCN)NC2=O)C(C)CC)CS1 (stereo not drawn) (cyclo(DNK([Ile-Glu-Leu-X1])[Orn]IFH); configuration not given here)
Solution: inactive

Exercise: # lookup: test call for `Cc1onc(-c2ccccc2Cl)c1C(=O)N[C@@H]1C(=O)N2[C@@H]1SC(C)(C)[C@@H]2C(=O)O`
Solution: inactive

Exercise: # lookup: test call for `Cc1ccc(N(CC2=NCCN2)c2cccc(O)c2)cc1`
Solution: inactive

Exercise: # lookup: test call for `CC(=O)NO`
Solution: inactive

Exercise: # lookup: test call for `COc1ccc2c(=O)ccoc2c1`
Solution: inactive

Continuing:
Exercise: # lookup: test call for `COc1cc(/C=C/C=O)cc(OC)c1OC`
Solution: inactive

Exercise: # lookup: test call for `COc1ccc(C(=O)c2ccc(O)cc2)c(O)c1O`
Solution: inactive

Exercise: # lookup: test call for CC(=O)OC1CCC2(C)C3CC(=O)C4(C)C(CC5OC6(CCC(C)CO6)[C@@H](C)C54)C3CC[C@H]2C1 (stereo partly drawn)
Solution: inactive

Exercise: # lookup: test call for COc1cc2c(cc1OC)-c1c(oc3c4c(ccc3c1=O)OC(C(C)C)C4)CO2 (stereo not drawn)
Solution: inactive

Exercise: # lookup: test call for `CCOc1ccc(C(=O)c2ccc(O)c(O)c2O)cc1`
Solution: active
